Answer each item with its documented viability.
assay summary: SK-BR-3 cell growth inhibitors, pilot screen, 24 h, human (AID 572);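 further: compound exposure lasted between 18 and 24 h rather than exactly 24 h; 100% = carrier-treated control wells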
cond: SK-BR-3 viability, CellTiter-Glo luminescence, at 10 µM, stronger effect = lower value
Give bare numbers, in %.

| molecule | units | viability |
| --- | --- | --- |
| Cc1ccc(C)c(-n2nnnc2SCC(=O)NCCC2=CCCCC2)c1 | % | 91 |

Please state, for each entry, its recorded viability.
1. O=C(O)C1C2C=CC(C3CC23)C1C(=O)NCCc1ccccc1 (configuration not stated)
2. CS(=O)(=O)c1ncc(Cl)c(C(=O)Nc2ccc(N3CCOCC3)cc2)n1
3. Cc1ccc2nc3c(cc(C(=O)NCC4CCCO4)n3C)c(=O)n2c1 (configuration not stated)
4. O=[N+]([O-])c1cccc2cn[nH]c12
5. CCOC(=O)c1sc(NC(=O)CSc2n[nH]c(-c3ccccc3)n2)c(C#N)c1C

Result:
101
201
134
113
122

Each molecule below has a recorded value; state its viability.
1. CCOc1nc(-c2ccncc2)nc2ccccc12
2. Cc1cccc(CC(=O)Nc2c3c(nn2-c2cccc(Cl)c2)CS(=O)C3)c1 (configuration not stated)
3. O=C(CCNNC(=O)c1ccncc1)NCc1ccccc1
4. CC(C)c1nc(N2CCN(C(=O)c3ccco3)CC2)c2c3c(sc2n1)CCCC3
5. COc1ccccc1C(O)P(=O)(OC(C)C)c1ccc(N(C)C)cc1 (configuration not stated)
6. O=C1NCC(COCc2ccccc2)O1 (configuration not stated)

Result:
1. 100
2. 104
3. 72
4. 76.5
5. 101
6. 110

* * *

assay summary: reversal of MRP1-mediated doxorubicin resistance, pilot screen, H69AR cells, doxorubicin co-treatment (AID 601)
cond: H69AR cells + 2 uM doxorubicin, CellTiter-Glo, 72 h; at 10 µM; stronger effect = higher value
Assignment: determine reported differential viability (reversal) for the given compounds.
Numbers only, in %.

| compound | units | differential viability (reversal) |
| --- | --- | --- |
| CCCCC(CC)Cn1c2nc3ccccc3nc2c2c(=N)oc(C)nc21 (stereo not given) | % | -0.33 |

// batch mode: one differential viability (reversal) value per listed entry
1. O=C(O)c1cccc(NC(=O)C23CC4CC(C2)CC(n2cnc(Cl)n2)(C4)C3)c1
2. CC1CCc2nc(NC(=O)CN3CCN(Cc4ccc5c(c4)OCO5)CC3)sc2C1 (stereo not given)
3. c1ccc2c(-c3nc(C4CCCCC4)no3)cc(-c3ccncc3)nc2c1
4. CCN(CC)CCNC(=O)c1ccc(N2CCCCC2)c(NS(=O)(=O)c2ccc(C)cc2)c1

Result:
1. 5.78
2. 14.3
3. -5.85
4. 2.53

* * *

assay summary: growth inhibitors of H69AR lung tumor, primary screen, human, duplicate replicates (AID 580);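 further: 100% = mean luminescence of untreated wells and 0% = no signal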
cond: H69AR lung tumor cells viability, ATP luminescence, 72 h; at 10 µM; stronger effect = lower value
Activity calls are given as the source filed them.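 Rule for the calls: active = viability at or under a set limit in both replicates, limit being median viability minus 3 SD (cut at about 48% in these data, passing the limit was not always enough); inconclusive = at or under the limit in just one replicate; inactive = at or above the limit in both replicates.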
reported property: viability

Some solved entries appear below for comparison.
| compound string | viability |
| --- | --- |
| COC(=O)Cc1cc(=O)n(-c2ccccc2)[nH]1 | 87.9% (inactive) |
| CC(C)(C)c1cc(NS(=O)(=O)c2ccc3c(c2)OCCO3)on1 | 89.6% (inactive) |

Continue with the compound presented below.
Problem: // query viability value for entry `Nn1c(SCC(=O)NC2CCCCC2)nnc1-c1ccc(Cl)cc1`
Result: 91.6% (inactive)

* * *

assay summary: SK-BR-3 cell growth inhibitors, pilot screen, 24 h, human (AID 572);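 further: compound exposure lasted between 18 and 24 h rather than exactly 24 h; 100% = carrier-treated control wells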
cond: SK-BR-3 viability, CellTiter-Glo luminescence, at 10 µM, stronger effect = lower value
Active and inactive are the calls of the source.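 Rule for the calls: active = viability at or below 10% of carrier control in both of two separate runs; inconclusive = viability at or below 10% in only one of the two runs; inactive = the rest.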
reported property: viability

| compound | viability |
| --- | --- |
| O=C(NCCCN1CCOCC1)c1cc(-c2ccc(Cl)cc2)on1 | 88% (inactive) |
| Cc1ccc(S(=O)(=O)CC2CSc3nnc(C)c(=O)n32)cc1 (stereo unspecified) | 136% (inactive) |
| Nc1ncnc2nc(Sc3ccc(Cl)cc3)[nH]c12 | 99% (inactive) |
| COc1ccc(-c2noc(CCCOc3ccccc3)n2)cc1OC | 78% (inactive) |
| Cn1c(=O)[nH]c(=O)c2c1ncn2CCN1CCOCC1 | 96% (inactive) |
| CCSc1nnc(-c2ccc(OC)cc2)o1 | 100% (inactive) |
| CCCCN1C[C@H](O)[C@@H](O)[C@H](O)[C@H]1CO | 123% (inactive) |
| CC1=C(C(=O)N2CCOCC2)C(c2ccccc2F)C2=C(CCCC2=O)N1 (stereo unspecified) | 110% (inactive) |

Report viability for every entry below.
1. COc1ccccc1NC(=O)CC(NCc1ccccc1)C(=O)O (stereo unspecified)
2. O=C1c2oc3ccccc3c(=O)c2C(c2cccnc2)N1Cc1ccco1 (stereo unspecified)
3. Cc1cc(=O)oc(C)c1C(=O)O

Result:
1: 108% (inactive); 2: 98% (inactive); 3: 102% (inactive)

* * *

Please respond with reported differential viability (reversal) for every item in the list.
assay summary: reversal of MRP1-mediated doxorubicin resistance, pilot screen, H69AR cells, doxorubicin co-treatment (AID 601)
cond: H69AR cells + 2 uM doxorubicin, CellTiter-Glo, 72 h; at 10 µM; stronger effect = higher value
Answers are plain numbers, in %.

Worked examples, 2 molecules total:
| molecule | differential viability (reversal) / % |
| --- | --- |
| CS(=O)(=O)N(CC(=O)NCc1ccncc1)Cc1ccc(Cl)cc1 | 0.52 |
| CS(=O)(=O)N(Cc1ccccc1)c1ccc(C(=O)N2CCOCC2)cc1 | 6.74 |

Items follow; give differential viability (reversal) for each.
1. COc1ccc(-c2nc(C(N)=O)c3[nH]c(=O)n(-c4cccc(Cl)c4)c3n2)cc1OC
2. CCCC1(C(=O)OC)NC(c2cc(OC)c(OC)c(OC)c2)C2C(=O)N(CC)C(=O)C21 (configuration not stated)
3. CC(C)OC(=O)CSc1nnc(-c2ccccn2)n1-c1ccccc1
4. O=C(CN1CCC(n2nnc3ccccc32)CC1)Nc1ccc2c(c1)CCC2
5. Cc1nc2nc(-c3cccnc3)nn2c(C)c1Cl

Result:
[-0.93, -1.5, -2.68, 1.24, 12.9]

* * *

assay summary: HUVEC growth inhibition – cell-based, human, primary screen (AID 575);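 further: 100% = median of untreated cell wells with 0.1% DMSO on each plate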
cond: HUVEC proliferation, CellTiter-Glo luminescence, 72 h; at 10 µM; stronger effect = lower value
Lab note: cut-off is 90%. Strictly less in viability is Y. Exactly 90% or more is N.

Problem: Strictly below 90%: is that where viability of COc1cccc(NC(=O)C2CCCN2C(=O)Nc2cccc(F)c2)c1 (stereo unspecified) sits?
Result: N

* * *

Kindly supply the reported viability increase values for the records listed here.
assay summary: viability gain of MRP-1-high H69AR cells under doxorubicin, pilot screen, MRP-1 activator project, CellTiter-Glo, duplicate (AID 807);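 further: compound pretreatment 18-22 h then 72 h combined with doxorubicin; 0% = doxorubicin alone and 100% = vehicle without doxorubicin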
cond: H69AR viability with doxorubicin, CellTiter-Glo luminescence; at 10 µM; stronger effect = higher value
One number for each entry, in %.

Reference set, count: 5
| molecule | reported property | units | reported |
| --- | --- | --- | --- |
| OC(CN1CCN(c2ccccc2)CC1)c1ccc2c(c1)CCN2 (stereo unspecified) | viability increase | % | -6.11 |
| Cn1cccc1Cc1nnc(SCC(=O)N2CCOCC2)n1-c1ccc(F)cc1 | viability increase | % | -1.33 |
| CC1CC(C)CN(c2ncnc3c2cnn3-c2ccc(Cl)cc2)C1 (stereo unspecified) | viability increase | % | 5.58 |
| CCN(c1ccc2c(c1)OCO2)S(=O)(=O)c1cc(Br)cc2c1N(C(=O)C1CC1)CC2 | viability increase | % | -3.72 |
| Cc1cccc(-n2c(=O)cc(N3CCN(c4ccc(F)cc4)CC3)[nH]c2=O)c1 | viability increase | % | -5.2 |

Alright, here's another molecule for you.
Problem: What does the record list as viability increase for COc1ccc(-c2nc(CS(=O)CC(=O)N3CCCC3)c(C)o2)cc1 (stereo unspecified) ?
Result: -2.14

* * *

assay summary: reversal of MRP1-mediated doxorubicin resistance, pilot screen, H69AR cells, doxorubicin co-treatment (AID 601)
cond: H69AR cells + 2 uM doxorubicin, CellTiter-Glo, 72 h; at 10 µM; stronger effect = higher value
Could you please report measured differential viability (reversal) for the items listed next?
Answers are plain numbers, in %.

Worked set:
| molecule | differential viability (reversal) (%) |
| --- | --- |
| C/C(Nc1cccc(F)c1)=C(/C#N)C(N)=O | 5.34 |
| CC(C)COc1ccc(-c2nnn(CC(=O)N3CCCC3)n2)cc1 | 14.9 |
| Cn1c(=O)c2c(nc(NCCCO)n2Cc2cccc(Br)c2)n(C)c1=O | 0.26 |
| Cc1cc(C)c2cc(CN(CC3CCCO3)C(=O)NC3CCCCC3)c(=O)[nH]c2c1 (stereo unspecified) | -2.42 |
| CC(C)Oc1ccc(C2C(C(=O)c3ccco3)=C(O)C(=O)N2CCCN(C)C)cc1 (stereo unspecified) | 8.15 |

Dear reader, for each entry below, please note its differential viability (reversal).
1. N#Cc1cnn(Cc2ccc(Cl)cc2)c1N
2. CC(=O)N1CCc2cc(S(=O)(=O)CCC(=O)N3CCN(C(=O)c4ccco4)CC3)ccc21

Result:
10.4
10.1
